- Tested on: SN12C renal
- protocol.text: NCI-60 one-dose screen, 48 h
- measurement.setup: 10 µM
About 83,000 compounds went through this panel and 20% of them were active in at least one assay; those are over-represented in the sample as a whole. Calls of active or inactive are those of the source. How the source made its calls: active means growth percent below 10; inactive means the rest.
Labels: class 1 (active), class 0 (inactive)

>  <smiles.structure>
C/C(=N\NC(=O)c1sc(=S)n(C)c1N)c1cc2ccccc2o1

>  <label.value>
class 0

$$$$
>  <smiles.structure>
O=C(CCl)N1c2ccccc2Sc2ccc3ccccc3c21

>  <label.value>
class 1

$$$$
>  <smiles.structure>
C=CCOc1ccc2c(c1)CC=C1[C@@H]2CC[C@]2(C)C(=O)/C(=N/O)C[C@@H]12

>  <label.value>
class 0

$$$$
>  <smiles.structure>
CCOC(=O)c1cc2c(n1Cc1cc(OC)cc(OC)c1)-c1oncc1CC2

>  <label.value>
class 0

$$$$
>  <smiles.structure>
O=C(Nc1cccc(-c2nc3ccccc3[nH]2)c1)c1cccc(NC(=O)c2ccco2)c1

>  <label.value>
class 0

$$$$
>  <smiles.structure>
Oc1ccc(Cn2cc3c(c2-c2ccccc2)CCc2cnoc2-3)cc1

>  <label.value>
class 0

$$$$
>  <smiles.structure>
COc1cc(/C=C/C(=O)c2cc(-c3ccccc3)ccc2O)cc(OC)c1OC

>  <label.value>
class 0

$$$$
>  <smiles.structure>
O=C(/C=C/c1nnc2n(Cc3ccccc3)c(=O)c3c4c(sc3n12)CCCC4)c1ccccc1

>  <label.value>
class 0

$$$$
>  <smiles.structure>
CC(C)CCN(CCCNc1c2c(nc3cc(Cl)ccc13)CCCC2)CCC(C)C

>  <label.value>
class 0

$$$$
>  <smiles.structure>
Fc1ccc2[nH]c3c(NCCCN4CCOCC4)ncnc3c2c1

>  <label.value>
class 0

$$$$

* * *

- Test system: EKVX NSCLC
- protocol.text: NCI-60 one-dose screen, 48 h (100 = growth as untreated, 0 = no growth, -100 = all killed)
- measurement.setup: 10 µM
This is part of a sample that, as a whole, favours compounds with a hit. Of some 83,000 tested, about 20% had one in any assay.
Property: growth; scope: individual compounds

>  <compound>
CCCCCc1cc[n+](CC(=O)c2ccc(Cl)cc2)cc1

>  <growth / %>
93.1

$$$$
>  <compound>
CCC(OC(=O)CC(C)C)c1ccccc1 (centres undefined)

>  <growth / %>
99.4

$$$$
>  <compound>
COc1ccc2oc(=O)cc(C3c4ccc([nH]4)C(c4cc(=O)oc5ccc(OC)cc45)c4ccc([nH]4)C(c4cc(=O)oc5ccc(OC)cc45)c4ccc([nH]4)C(c4cc(=O)oc5ccc(OC)cc45)c4ccc3[nH]4)c2c1 (centres undefined)

>  <growth / %>
27.8

$$$$
>  <compound>
c1ccc(C2CCCCC2)c(OCCCCCN2CCNCC2)c1

>  <growth / %>
67.4

$$$$
>  <compound>
COc1cc(-c2nc(-c3nnc(-c4cccnc4)o3)c3ccccn23)cc(OC)c1OC

>  <growth / %>
106

$$$$
>  <compound>
CCOC(=O)c1sc(NC(=O)c2cc(OC)c(OC)c(OC)c2)nc1C

>  <growth / %>
99.8

$$$$
>  <compound>
Nc1cc(O)cc(O)c1

>  <growth / %>
97.1

$$$$
>  <compound>
CCOC(=S)Sc1ccc([N+](=O)[O-])cc1[N+](=O)[O-]

>  <growth / %>
98

$$$$
>  <compound>
CCn1nc(-c2ccccn2)c2cccnc2c1=S

>  <growth / %>
59.9

$$$$
>  <compound>
COc1cc([C@@H]2c3cc4c(cc3[C@H](SC(=N)N)[C@H]3COC(=O)[C@H]23)OCO4)cc(OC)c1OC

>  <growth / %>
33.2

$$$$
>  <compound>
CCCc1ccnc(NS(=O)(=O)c2ccc(N)cc2)n1

>  <growth / %>
58.5

$$$$
>  <compound>
CCOC(=O)c1c(O)c2cc(-c3ccccc3)nc(OCC)c2c(=O)n1C

>  <growth / %>
96

$$$$
>  <compound>
CNC(=O)c1cc(Oc2ccc(NC(=O)Nc3ccc(Cl)c(OC(C)C)c3)c(F)c2)ccn1

>  <growth / %>
34.8

$$$$
>  <compound>
O=C(NCCc1nccs1)c1cnc2c(S)cccc2c1

>  <growth / %>
16.3

$$$$
>  <compound>
CCCCN(CCCC)c1ccc(C(=NC(C)CCCN(CC)CC)c2ccc(N(C)C)cc2)cc1 (centres undefined)

>  <growth / %>
-30.4

$$$$
>  <compound>
N#Cc1c2c([nH]c(=O)c1C(N)=O)CCCCC2

>  <growth / %>
104

$$$$
>  <compound>
NC1CCC(Nc2nc(NCc3ccc(-c4ccco4)nc3)c3ncn(C4CCCC4)c3n2)CC1 (centres undefined)

>  <growth / %>
-2.93

$$$$
>  <compound>
CNC(=O)c1cc(Oc2ccc(NC(=O)Nc3ccc(Cl)c(C(C)(C)C)c3)c(F)c2)ccn1

>  <growth / %>
29.9

$$$$
>  <compound>
O=C(N/N=c1/ccoc2cccnc12)N1CCN(c2ncccn2)CC1

>  <growth / %>
17.4

$$$$
>  <compound>
O=C(c1ccccc1)C(Nc1ccccc1)c1ccccc1 (centres undefined)

>  <growth / %>
86.2

$$$$
>  <compound>
CC1(C)CC(=O)c2c(nc3ccc(Cl)cc3c2-c2ccccc2)C1

>  <growth / %>
95.9

$$$$
>  <compound>
NC1CCC(Nc2nc(NCc3cc(Cl)ccc3O)c3ncn(C4CCCC4)c3n2)CC1 (centres undefined)

>  <growth / %>
-18.7

$$$$
>  <compound>
NC1CCC(Nc2nc(NCc3ccc(-c4ccccc4O)nc3)c3ncn(C4CCCC4)c3n2)CC1 (centres undefined)

>  <growth / %>
-20.1

$$$$
>  <compound>
C=CCn1ccc(=O)nc1SC

>  <growth / %>
104

$$$$
>  <compound>
S=C(Cc1ccc(-c2ccccc2)cc1)N1CCOCC1

>  <growth / %>
95.4

$$$$
>  <compound>
CCN(CC)CCOC(=O)c1ccc(NC(=O)Nc2cccc(Cl)c2)cc1

>  <growth / %>
99.2

$$$$
>  <compound>
Oc1ccc(/C=N\Nc2ccccn2)c(O)c1

>  <growth / %>
33

$$$$
>  <compound>
Cc1ccc2oc(=O)cc(/C(=C3/C=CC=N3)c3ccc[nH]3)c2c1

>  <growth / %>
16.5

$$$$
>  <compound>
CCN1CCOC1C(C)C (centres undefined)

>  <growth / %>
107

$$$$
>  <compound>
COc1cc(C2c3cc4c(cc3C(O)C(CO)C2CO)OCO4)cc(OC)c1OC (centres undefined)

>  <growth / %>
7.57

$$$$
>  <compound>
COc1ccc(NC(=O)CCn2cnc3c(cc(-c4ccccc4)n3-c3ccccc3)c2=O)cc1

>  <growth / %>
85.8

$$$$
>  <compound>
CCN(CC)CCOC(=O)c1ccc(N=Nc2ccc(O)c(OC)c2)cc1

>  <growth / %>
99.2

$$$$
>  <compound>
COc1ccc2nc(NC(=O)Nc3c(F)cccc3F)sc2c1

>  <growth / %>
102

$$$$
>  <compound>
CCCCCC(CCC)COC(=O)c1ccc(OC)cc1 (centres undefined)

>  <growth / %>
100

$$$$
>  <compound>
COc1ccc(/C(=C/c2cc(OC)c(OC)cc2[N+](=O)[O-])C(=O)O)cc1

>  <growth / %>
105

$$$$
>  <compound>
Nc1cc2c(cc1Cl)-c1ccc(Cl)cc1C2=O

>  <growth / %>
67.7

$$$$
>  <compound>
CCOC(=O)c1cc2c(n1Cc1cccc(OC)c1)-c1oncc1CC2

>  <growth / %>
50.6

$$$$
>  <compound>
CCCC(C)c1ccc(OCCCCCCN2CCNCC2)cc1 (centres undefined)

>  <growth / %>
67.3

$$$$
>  <compound>
CC(=O)Oc1ccc(C2=Cc3ccc(OC(C)=O)cc3OC2C)cc1 (centres undefined)

>  <growth / %>
56.7

$$$$
>  <compound>
C[C@]12CC[C@H]3[C@@H](CCC4=CC(=O)CC[C@@]43C)[C@@H]1CC[C@@H]2c1csc(N)n1

>  <growth / %>
23.6

$$$$
>  <compound>
CN(C)c1ccc2c(c1)OC(N)=C(C#N)C2c1ccc2c(c1)CCO2 (centres undefined)

>  <growth / %>
35.9

$$$$
>  <compound>
O=[N+]([O-])c1ccc(S(=O)(=O)OCCCCOS(=O)(=O)c2ccc([N+](=O)[O-])cc2)cc1

>  <growth / %>
95.8

$$$$
>  <compound>
COc1cc(Cn2c(-c3ccccc3)c(Cl)c3c2-c2oncc2CC3)cc(OC)c1

>  <growth / %>
90.6

$$$$
>  <compound>
Cn1c(N)c(N=Cc2ccccc2)c(=O)n(C)c1=O

>  <growth / %>
100

$$$$

* * *

- System: OVCAR-3 ovarian
- protocol.text: NCI-60 one-dose screen, 48 h (100 = growth as untreated, 0 = no growth, -100 = all killed)
- measurement.setup: 10 µM
About 83,000 compounds went through this panel and 20% of them were active in at least one assay; those are over-represented in the sample as a whole.
If the reported growth equals or exceeds 30%, assign true (1). If not, assign false (0).

>  <compound>
CC(=O)Nc1nc(C)c(C(=O)N/N=C/c2cccn2C)s1

>  <system.tested>
OVCAR-3 ovarian

>  <label.value>
true (1)

$$$$
>  <compound>
COc1ccc(NC(=O)c2sc3nc4c(cc3c2N)C(O)CCC4)cc1 (stereo not given)

>  <system.tested>
OVCAR-3 ovarian

>  <label.value>
true (1)

$$$$
>  <compound>
O=C1/C(=C/c2cccs2)CCC/C1=C\c1cccs1

>  <system.tested>
OVCAR-3 ovarian

>  <label.value>
true (1)

$$$$
>  <compound>
COc1ccccc1Cn1cc2c(c1-c1ccccc1)CCc1cnoc1-2

>  <system.tested>
OVCAR-3 ovarian

>  <label.value>
false (0)

$$$$
>  <compound>
CN(C)c1ccc2cc(-c3cc4c(oc3=O)-c3ccccc3OC4O)c(=O)oc2c1 (stereo not given)

>  <system.tested>
OVCAR-3 ovarian

>  <label.value>
false (0)

$$$$
>  <compound>
COc1ccc(C(=O)c2sc3nc(-c4cccs4)ccc3c2N)cc1OC

>  <system.tested>
OVCAR-3 ovarian

>  <label.value>
true (1)

$$$$
>  <compound>
FC(F)(F)c1ccc(-c2ncc(-c3ccc(C(F)(F)F)cc3)c(NCc3cc(C(F)(F)F)cc(C(F)(F)F)c3)n2)cc1

>  <system.tested>
OVCAR-3 ovarian

>  <label.value>
true (1)

$$$$
>  <compound>
COc1cccc(C(=O)N(c2ccc(F)c(F)c2)C(C(=O)NC(C)(C)C)c2cc3c(C)cc(C)cc3nc2Cl)c1 (stereo not given)

>  <system.tested>
OVCAR-3 ovarian

>  <label.value>
true (1)

$$$$
>  <compound>
COc1cc(CSc2nc3ccc(C)cc3c(=O)n2Cc2ccccc2)cc(OC)c1OC

>  <system.tested>
OVCAR-3 ovarian

>  <label.value>
false (0)

$$$$
>  <compound>
C=CCNC(=S)NN

>  <system.tested>
OVCAR-3 ovarian

>  <label.value>
true (1)

$$$$
